# Test system: MS751 cells
# PROCEDURE TEXT: MTT cell proliferation assay, MS751 cells
# Assay type: cell-based
# ASSAY CONDITIONS: MS751 cells (human cervix squamous cell carcinoma metastasis); incubation approximately 64-72 hours; read-out: MTT Assay IC50 MS 751
Quick reference: IC50 of the listed items.

Guide cases for IC50, answers given:
molecule="Nc1ccc(/C=C/C(=O)NCc2cc3cc(-c4ccc(C(=O)N5CCC(F)(F)CC5)cc4)cc(C(F)(F)F)c3s2)cn1 [compound 518]" measure=IC50 value_reported="1 to 5 µM"
molecule="Nc1ccc(/C=C/C(=O)NCc2nc3cc(-c4ccc(C(=O)N5CCC(F)(F)CC5)cn4)cc(C(F)(F)F)c3s2)cn1 [compound 532]" measure=IC50 value_reported="< 1 µM"

(Q) What value of IC50 has been reported for the following molecule? CC1(C)COCCN1C(=O)c1ccc(-c2cc(C(F)(F)F)c3sc(CNC(=O)/C=C/c4ccc(N)nc4)cc3c2)cc1 [compound 523]
(A) 1 to 5 µM

(Q) What value of IC50 has been reported for the following molecule? Nc1ccc(/C=C/C(=O)NCc2cc3cc(-c4ccc(C(=O)N5CC(F)(F)C5)cn4)cc(C(F)(F)F)c3s2)cn1 [compound 512]
(A) 1 to 5 µM

(Q) What value of IC50 has been reported for the following molecule? Nc1ccc(/C=C/C(=O)NCCc2cc3cc(-c4ccc(C(=O)N5CCC(F)(F)CC5)cn4)cc(C(F)(F)F)c3s2)cn1 [compound 534]
(A) < 1 µM

(Q) What value of IC50 has been reported for the following molecule? Nc1ccc(/C=C/C(=O)NCc2nc3cc(-c4ccc(C(=O)N5CCC(F)(F)CC5)cc4)cc(-c4ccc(F)cc4)c3s2)cn1 [compound 535]
(A) 1 to 5 µM

(Q) What value of IC50 has been reported for the following molecule? Nc1ccc(/C=C/C(=O)NCc2cc3cc(-c4ccc(C(=O)N5CCC(O)(C(F)(F)F)C5)cn4)cc(C(F)(F)F)c3s2)cn1 (centres unmarked) [compound 509]
(A) 1 to 5 µM

(Q) What value of IC50 has been reported for the following molecule? Nc1ccc(/C=C/C(=O)NCc2cc3cc(-c4ccc(C(=O)N5CC6(COC6)C5)cc4)cc(C(F)(F)F)c3s2)cn1 [compound 519]
(A) < 1 µM

(Q) What value of IC50 has been reported for the following molecule? Nc1ccc(/C=C/C(=O)NCc2cc3cc(-c4ccc(C(=O)N5CCC(F)CC5)cn4)cc(C(F)(F)F)c3s2)cn1 [compound 517]
(A) 1 to 5 µM

(Q) What value of IC50 has been reported for the following molecule? CC1(C)CN(C(=O)c2ccc(-c3cc(C(F)(F)F)c4sc(CNC(=O)/C=C/c5ccc(N)nc5)cc4c3)nc2)CCO1 [compound 514]
(A) 1 to 5 µM

(Q) What value of IC50 has been reported for the following molecule? Nc1ccc(/C=C/C(=O)NCc2cc3cc(-c4ccc(C(=O)N5CC6(COC6)C5)cn4)cc(C(F)(F)F)c3s2)cn1 [compound 511]
(A) < 1 µM
